assayed_target: UniProtKB P30518
measurement_description: Human V2 antagonist effect (AVP-induced cAMP accumulation in transfected CHO cells)
Assay type: cell-based
Parameters: expressed in transfected cells; host or cells: CHO cells
condition_label: inhibition of control response to 0.03 nM AVP, read-out: V2 antagonism IC50
pIC50: −log10 of the molar value.
experimental_readout: pIC50

>>> measured_result("O=C(O)CN1Cc2ccccc2N(C(=O)c2ccc(NC(=O)c3ccccc3-c3ccccc3)cc2Cl)C[C@H]1CO")
5.55
>>> measured_result("O=C1CN2Cc3ccccc3N(C(=O)c3ccc(NC(=O)c4ccccc4-c4ccccc4)cc3Cl)C[C@H]2CO1")
7.89
>>> measured_result("O=C(Nc1ccc(C(=O)N2C[C@@H](CO)NCc3ccccc32)c(Cl)c1)c1ccccc1-c1ccccc1")
7.24
>>> measured_result("O=C(Nc1ccc(C(=O)N2C[C@H]3COC(O)CN3Cc3ccccc32)c(Cl)c1)c1ccccc1-c1ccccc1 (stereo partly shown)")
7.96

----------
assayed_target: human V1a receptors (Homo sapiens, UniProt P37288)
Sequence (P37288 whole entry): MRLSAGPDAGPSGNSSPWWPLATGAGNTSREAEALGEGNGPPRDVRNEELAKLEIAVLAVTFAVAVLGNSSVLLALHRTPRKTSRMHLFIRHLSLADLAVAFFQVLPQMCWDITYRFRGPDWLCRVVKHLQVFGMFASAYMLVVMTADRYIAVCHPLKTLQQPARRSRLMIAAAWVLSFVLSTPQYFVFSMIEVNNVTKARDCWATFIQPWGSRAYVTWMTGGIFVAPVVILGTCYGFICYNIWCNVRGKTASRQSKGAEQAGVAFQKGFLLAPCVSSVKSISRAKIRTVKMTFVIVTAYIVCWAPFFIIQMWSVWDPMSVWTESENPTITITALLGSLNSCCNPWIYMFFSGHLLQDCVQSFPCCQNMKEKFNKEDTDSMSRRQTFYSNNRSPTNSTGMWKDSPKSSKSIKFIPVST
measurement_description: Human vasopressin V1a receptor binding assay ([3H]AVP displacement)
Design: expressed in transfected cells; host or cells: CHO cells (membrane homogenates)
condition_label: displacement of 0.3 nM [3H]AVP, CHO cell membranes, 22° C.
pIC50: −log10 of the molar value.
This section presents compounds with their documented pIC50 values.
experimental_readout: pIC50

>>> measured_result("O=C(Nc1ccc(C(=O)N2C[C@H]3COC(O)CN3Cc3ccccc32)c(Cl)c1)c1ccccc1-c1ccccc1 (stereo partly drawn) [Compound 19]")
6.68
>>> measured_result("O=C1CN2Cc3ccccc3N(C(=O)c3ccc(NC(=O)c4ccccc4-c4ccccc4)cc3Cl)C[C@H]2CO1 [Compound 16]")
6.62
>>> measured_result("O=C(Nc1ccc(C(=O)N2C[C@@H](CO)NCc3ccccc32)c(Cl)c1)c1ccccc1-c1ccccc1 [Compound 14]")
5.42

----------
assayed_target: human V2 receptor (Homo sapiens, UniProt P30518)
Sequence (P30518 whole entry): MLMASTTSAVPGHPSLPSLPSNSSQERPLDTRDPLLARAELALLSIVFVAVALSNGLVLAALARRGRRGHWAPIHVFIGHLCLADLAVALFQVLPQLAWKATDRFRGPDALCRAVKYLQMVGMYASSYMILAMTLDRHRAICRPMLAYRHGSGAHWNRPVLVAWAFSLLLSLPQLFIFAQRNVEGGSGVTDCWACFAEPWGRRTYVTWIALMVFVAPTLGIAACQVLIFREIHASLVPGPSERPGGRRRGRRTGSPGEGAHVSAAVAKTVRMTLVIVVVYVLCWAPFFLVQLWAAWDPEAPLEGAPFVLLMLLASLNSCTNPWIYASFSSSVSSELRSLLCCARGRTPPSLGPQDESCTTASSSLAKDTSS
measurement_description: Human vasopressin V2 receptor binding assay ([3H]AVP displacement)
Design: expressed in transfected cells; host or cells: CHO cells (membrane homogenates)
condition_label: displacement of 0.3 nM [3H]AVP, CHO cell membranes, 120 min at 22° C.
Reported IC50 by item:
experimental_readout: IC50 (nM)

>>> measured_result("O=C(O)CN1Cc2ccccc2N(C(=O)c2ccc(NC(=O)c3ccccc3-c3ccccc3)cc2Cl)C[C@H]1CO")
120
>>> measured_result("O=C(Nc1ccc(C(=O)N2C[C@H]3COC(O)CN3Cc3ccccc32)c(Cl)c1)c1ccccc1-c1ccccc1 (stereo partly shown)")
2.5
>>> measured_result("O=C(Nc1ccc(C(=O)N2C[C@@H](CO)NCc3ccccc32)c(Cl)c1)c1ccccc1-c1ccccc1")
5.8
>>> measured_result("O=C1CN2Cc3ccccc3N(C(=O)c3ccc(NC(=O)c4ccccc4-c4ccccc4)cc3Cl)C[C@H]2CO1")
1.9

----------
assayed_target: human V2 receptor (Homo sapiens, UniProt P30518)
measurement_description: Human V2 agonist effect (cAMP accumulation in transfected CHO cells)
Format: cell-based
Design: expressed in transfected cells; host or cells: CHO cells
condition_label: compound at 1 μM, control response to 1 nM AVP
Description: The accumulation of cAMP was measured in transfected CHO cells (supra) expressing the human V2 receptor in analogy with the cAMP Assay procedures described in Cotte N., et al., (1998) J. Biol. Chem., 273; 29462-29468; which is incorporated herein by reference. […] The results are expressed as a percent of the control response to 1 nM AVP.
experimental_readout: V2 agonist effect, % of control agonist response (AVP) (%)

>>> measured_result("O=C(O)CN1Cc2ccccc2N(C(=O)c2ccc(NC(=O)c3ccccc3-c3ccccc3)cc2Cl)C[C@H]1CO")
"−1"
>>> measured_result("O=C(Nc1ccc(C(=O)N2C[C@H]3COC(O)CN3Cc3ccccc32)c(Cl)c1)c1ccccc1-c1ccccc1 (stereo partly shown)")
0
>>> measured_result("O=C(Nc1ccc(C(=O)N2C[C@@H](CO)NCc3ccccc32)c(Cl)c1)c1ccccc1-c1ccccc1")
"−1"
>>> measured_result("O=C1CN2Cc3ccccc3N(C(=O)c3ccc(NC(=O)c4ccccc4-c4ccccc4)cc3Cl)C[C@H]2CO1")
0

Cited source for all entries: patent US20120184537A1
